Tested on: RXF 393 renal
Assay: NCI tumour cell line growth inhibition, 48 h
measured parameter: TGI (µM)
Numbers only, in µM.

Given CN(CCCN(C)CCc1ccc(Cl)c(Cl)c1)CCCN1CCCC1 , respond with its TGI.
4.58

Given Cc1ccc(S(=O)(=O)NNC2(NS(=O)(=O)c3ccc(Cl)cc3)C(Cl)=C(Cl)C(=O)c3ccccc32)cc1 (configuration not stated) , respond with its TGI.
31.1

Given CCCOC(=O)CCn1c(SC)nc2[nH]cc(-c3ccccc3)c2c1=O , respond with its TGI.
54.8

Given CCCCCCCOc1c(OC)cc(C2CC(=O)Nc3c2c(C)nn3-c2nc3ccccc3[nH]2)cc1OC (configuration not stated) , respond with its TGI.
5.02

Hey, quick one: what's TGI for each of these?
1. CC(=O)N1N(c2ccc([N+](=O)[O-])cc2)C(=O)C1(C)C
2. Clc1nc(Cl)c(-c2ccccc2)c(Cl)n1
3. COc1ccc(C(=O)/C=C/c2cccnc2)cc1OC
4. COC(=O)C1=C(C)NC(C)=C(C(=O)OC)C1c1cccc(NO)c1
5. Nc1n[nH]c2cccc(C#Cc3cccc(C(=O)Nc4cc(CN5CCOCC5)cc(C(F)(F)F)c4)c3)c12

32.3
5.58
18.6
27.1
7.92

Given CSC1(SC2=NCCN2)SC2(NCCN2)S1 , respond with its TGI.
20.4
